List of pIC50 values.
system: HepG2; test: Cytotoxic activity against human HepG2 cells after 24 hrs by MTT assay; type: functional, cell-based; settings: HepG2, 24 h
pIC50: −log10 of the molar value.

# given smiles, pIC50
rows = [
    ("C[C@]12CC[C@H]3[C@@H](CC=C4C[C@@H](O)CC[C@@]43C)[C@@H]1CC[C@@H]2C(=O)C#Cc1cccc(C(F)(F)F)c1", 4.34),
    ("C[C@]12CC[C@H]3[C@@H](CC=C4C[C@@H](O)CC[C@@]43C)[C@@H]1CC[C@@H]2C(=O)C#Cc1cccc(F)c1", "< 4.30"),
    ("COc1ccc(C#CC(=O)[C@H]2CC[C@H]3[C@@H]4CC=C5C[C@@H](O)CC[C@]5(C)[C@H]4CC[C@]23C)c(C)c1", "< 4.30"),
    ("C[C@]12CC[C@H]3[C@@H](CC=C4C[C@@H](O)CC[C@@]43C)[C@@H]1CC[C@@H]2C(=O)C#Cc1ccc(F)cc1", "< 4.30"),
]

====

# reported IC50; entries follow
test system: A549; experiment: Cytotoxic activity against human A549 cells after 24 hrs by MTT assay; format: functional, cell-based; conditions: A549, 24 h

# compound, sign, IC50, µM
rows = [
    ("C[C@]12CC[C@H](O)CC1=CC[C@@H]1[C@@H]2CC[C@]2(C)C(=O)CC[C@@H]12 [PRASTERONE]", "=", 47.8),
    ("C[C@]12CC[C@H]3[C@@H](CC=C4C[C@@H](O)CC[C@@]43C)[C@@H]1CC[C@@H]2C(=O)C#Cc1cccc(F)c1", ">", 50),
    ("Cc1cc(C#CC(=O)[C@H]2CC[C@H]3[C@@H]4CC=C5C[C@@H](O)CC[C@]5(C)[C@H]4CC[C@]23C)ccc1F", "=", 40.1),
    ("COc1ccc(C#CC(=O)[C@H]2CC[C@H]3[C@@H]4CC=C5C[C@@H](O)CC[C@]5(C)[C@H]4CC[C@]23C)c(C)c1", "=", 44.3),
    ("C#Cc1cccc(C#CC(=O)[C@H]2CC[C@H]3[C@@H]4CC=C5C[C@@H](O)CC[C@]5(C)[C@H]4CC[C@]23C)c1", ">", 50),
    ("C[C@]12CC[C@H]3[C@@H](CC=C4C[C@@H](O)CC[C@@]43C)[C@@H]1CC[C@@H]2C(=O)C#Cc1ccc(F)cc1", ">", 50),
    ("Cc1cc(C)c(C#CC(=O)[C@H]2CC[C@H]3[C@@H]4CC=C5C[C@@H](O)CC[C@]5(C)[C@H]4CC[C@]23C)cc1C", ">", 50),
]

====

In this section, each of the molecules is paired with its reported pIC50.
tested on: HeLa; assay: Cytotoxic activity against human HeLa cells after 24 hrs by MTT assay; format: functional, cell-based
pIC50: −log10 of the molar value.

# given smiles, sign, pIC50
rows = [
    ("Cc1cc(C#CC(=O)[C@H]2CC[C@H]3[C@@H]4CC=C5C[C@@H](O)CC[C@]5(C)[C@H]4CC[C@]23C)ccc1F", "<", 4.30),
    ("C[C@]12CC[C@H]3[C@@H](CC=C4C[C@@H](O)CC[C@@]43C)[C@@H]1CC[C@@H]2C(=O)C#Cc1cccc(F)c1", "=", 4.67),
    ("C[C@]12CC[C@H]3[C@@H](CC=C4C[C@@H](O)CC[C@@]43C)[C@@H]1CC[C@@H]2C(=O)C#Cc1ccc(F)cc1", "<", 4.30),
    ("C[C@]12CC[C@H]3[C@@H](CC=C4C[C@@H](O)CC[C@@]43C)[C@@H]1CC[C@@H]2C(=O)C#Cc1cccc(C(F)(F)F)c1", "=", 4.60),
    ("C[C@]12CC[C@H]3[C@@H](CC=C4C[C@@H](O)CC[C@@]43C)[C@@H]1CC[C@@H]2C(=O)C#Cc1ccccc1C(F)(F)F", "=", 4.86),
    ("COc1ccc(C#CC(=O)[C@H]2CC[C@H]3[C@@H]4CC=C5C[C@@H](O)CC[C@]5(C)[C@H]4CC[C@]23C)c(C)c1", "<", 4.30),
]
